// provenance: patent US7375106B2

System: licking of the formalin injected paw (Phase 2, 20-30 min)
Assay Comment: Formalin paw test, determination of ID50 of single agents (experiment 1)
Format: in vivo, male mice (Hsd Ola:ICR)
Experimental Context: single agent, intravenously 15 min before formalin (20 μl; 3%); 20-30 min after formalin
Readout Label: ID50 (μg/kg) for 2nd phase of licking (95% confidence limits)

# example entries with known answers
| Compound | Test Result |
| --- | --- |
| C=CCN1C[C@H](C)N([C@@H](c2cccc(O)c2)c2cccc(C(=O)N(C)c3cccc(F)c3)c2)C[C@H]1C [Org 41793] | 92 (60-140) μg/kg |
| COc1ccc2c(c1)c(CC(=O)O)c(C)n2C(=O)c1ccc(Cl)cc1 [Indomethacin, indomethacin] | 340 (218-531) μg/kg |
| CN1CC[C@]23c4c5ccc(O)c4O[C@H]2[C@@H](O)C=C[C@H]3[C@H]1C5.O.O.O.O.O.O=S(=O)(O)O [Morphine, Morphine sulphate pentahydrate] | 870 (496-1522) μg/kg |

Read the entry O=C(c1ccccc1)c1ccc2n1CCC2C(=O)O (racemic) [Ketorolac] and write its reported ID50 (μg/kg) for 2nd phase of licking (95% confidence limits).
70 (40-134) μg/kg
